Kindly state pIC50 for each of the entries shown.
tested.system: PAR4 (Homo sapiens (Human))
measurement.description: FLIPR assay in PAR4-expressing HEK293 cells (PAR4 antagonist activity, calcium mobilization)
Assay type: cell-based
study.conditions: FLIPR assay as described in Example A
Give bare numbers, as −log10 of the molar value.

Examples with answers:
compound | recorded.measurement
CSc1nn2cc(-c3cc4c(OCc5ccc(F)cc5)cccc4o3)nc2s1 [Example 249] | 7.71
COc1nn2cc(-c3cc4ccc(F)cc4o3)nc2s1 [Example 96] | 8.10
CC(F)c1nn2cc(-c3nc4ccccc4s3)nc2s1 (stereo not drawn) [Example 186] | 6.60
COc1cc(OCc2cccc(OCc3ccc(Cl)c(Cl)c3)c2)c2cc(-c3cn4nc(OC)sc4n3)oc2c1 [Example 365] | 8.49
CSc1nn2cc(-c3nc4c(OCc5ccncc5)cccc4o3)nc2s1 [Example 167] | 6.11
COc1cc2oc(-c3cn4nc(C(C)(F)F)sc4n3)cc2cc1Br [Example 272] | 7.54

// each compound listed below needs its pIC50
1. COc1nn2cc(-c3nc4cc(F)c(F)cc4o3)nc2s1 [Example 138]
2. COc1cc(OCc2cccc(OCc3csc(C)n3)c2)c2cc(-c3cn4nc(OC)sc4n3)oc2c1 [Example 399]
3. Cc1cccc2oc(-c3cn4nc(C(C)(F)F)sc4n3)nc12 [Example 122]
4. CC(F)(F)c1nn2cc(-c3cc4c(OCc5ccccc5)cccc4o3)nc2s1 [Example 250]
5. CCc1nn2cc(-c3nc4ccc(OCc5ccccc5Cl)cc4o3)nc2s1 [Example 81]
6. COc1nn2cc(-c3cc4c(OCc5cccc(C#N)c5)cccc4o3)nc2s1 [Example 281]
7. CCc1nn2cc(-c3nc4ccc(OCc5ccccc5)cc4o3)nc2s1 [Example 67]

[reply]
6.33
9.23
6.29
6.57
6.30
5.87
6.99

// each compound listed below needs its pIC50
1. COc1cc(OCc2cccc(OCc3ccc(Cl)cc3F)c2)c2cc(-c3cn4nc(OC)sc4n3)oc2c1 [Example 323]
2. Fc1ccc2cc(-c3cn4nc(C(F)(F)Cl)sc4n3)oc2c1 [Example 243]
3. COc1nn2cc(-c3nc4cc(F)ccc4s3)nc2s1 [Example 194]
4. CCCCOc1cccc2cc(-c3cn4nc(CC)sc4n3)oc12 [Example 64]
5. Cc1cc(C)c2cc(-c3cn4nc(Br)sc4n3)oc2c1 [Example 296]
6. CSc1nn2cc(-c3cc4cccc(F)c4o3)nc2s1 [Example 257]

[reply]
1. 8.83
2. 6.44
3. 8.02
4. 5.80
5. 6.97
6. 7.30

// each compound listed below needs its pIC50
1. CSc1nn2cc(-c3cc4c(OCc5cccc(OCc6ccccc6)c5)cc(OC=O)cc4o3)nc2s1 [Example 425]
2. CSc1nn2cc(-c3cc4c(C(=O)O)cccc4o3)nc2s1 [Example 219]

[reply]
1: 7.91; 2: 5.89

* * *

tested.system: PAR4 (Homo sapiens (Human), UniProt Q96RI0)
Sequence (Q96RI0 18-385): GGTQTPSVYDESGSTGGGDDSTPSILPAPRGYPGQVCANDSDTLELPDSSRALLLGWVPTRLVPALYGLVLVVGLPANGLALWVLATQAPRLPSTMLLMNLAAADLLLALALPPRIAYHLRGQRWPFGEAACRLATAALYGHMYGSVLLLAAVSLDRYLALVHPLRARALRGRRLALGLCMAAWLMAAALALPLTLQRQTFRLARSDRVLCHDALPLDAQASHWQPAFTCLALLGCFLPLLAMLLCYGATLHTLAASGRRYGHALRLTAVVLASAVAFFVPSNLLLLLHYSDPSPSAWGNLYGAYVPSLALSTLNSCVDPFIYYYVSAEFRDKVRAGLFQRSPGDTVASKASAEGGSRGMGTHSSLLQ
measurement.description: FLIPR assay in PAR4-expressing HEK293 cells (PAR4 antagonist activity, calcium mobilization)
Assay type: cell-based
study.conditions: FLIPR assay as described in Example A
pIC50: −log10 of the molar value.
Give Condition met when the value for pIC50 is at least 8. Give Condition not met when it is less.

Solved entries:
compound | class.name
COc1ccc2cc(-c3cn4nc(SC)sc4n3)oc2c1 [Example 20] | Condition met
CSc1nn2cc(-c3cc4c(OCc5cccc(OCc6ccccc6)c5)cc(OC(F)F)cc4o3)nc2s1 [Example 424] | Condition not met
COc1cc(OC)c2nc(-c3cn4nc(SC)sc4n3)oc2c1 [Example 177] | Condition met

[ask] Does FC(F)(Cl)c1nn2cc(-c3cc4ccccc4o3)nc2s1 [Example 209] have a reported pIC50 of at least 8?
[reply] Condition not met

[ask] Does COc1nn2cc(-c3nc4cc(OC(F)(F)F)ccc4o3)nc2s1 [Example 140] have a reported pIC50 of at least 8?
[reply] Condition not met

[ask] Does COc1cc(OCc2cccc(OCc3cccc(C)c3)c2)c2cc(-c3cn4nc(OC)sc4n3)oc2c1 [Example 386] have a reported pIC50 of at least 8?
[reply] Condition met

Hello, the source for this data is patent US9862730B2, in case you need it.
